// Percent Effect lookup, one value per entry
Molecular target: Chromo domain-containing protein 1 (Saccharomyces cerevisiae (strain ATCC 204508 / S288c) (Baker's yeast)) (UniProt P32657)
Sequence (P32657 whole entry, the tested form may be a part): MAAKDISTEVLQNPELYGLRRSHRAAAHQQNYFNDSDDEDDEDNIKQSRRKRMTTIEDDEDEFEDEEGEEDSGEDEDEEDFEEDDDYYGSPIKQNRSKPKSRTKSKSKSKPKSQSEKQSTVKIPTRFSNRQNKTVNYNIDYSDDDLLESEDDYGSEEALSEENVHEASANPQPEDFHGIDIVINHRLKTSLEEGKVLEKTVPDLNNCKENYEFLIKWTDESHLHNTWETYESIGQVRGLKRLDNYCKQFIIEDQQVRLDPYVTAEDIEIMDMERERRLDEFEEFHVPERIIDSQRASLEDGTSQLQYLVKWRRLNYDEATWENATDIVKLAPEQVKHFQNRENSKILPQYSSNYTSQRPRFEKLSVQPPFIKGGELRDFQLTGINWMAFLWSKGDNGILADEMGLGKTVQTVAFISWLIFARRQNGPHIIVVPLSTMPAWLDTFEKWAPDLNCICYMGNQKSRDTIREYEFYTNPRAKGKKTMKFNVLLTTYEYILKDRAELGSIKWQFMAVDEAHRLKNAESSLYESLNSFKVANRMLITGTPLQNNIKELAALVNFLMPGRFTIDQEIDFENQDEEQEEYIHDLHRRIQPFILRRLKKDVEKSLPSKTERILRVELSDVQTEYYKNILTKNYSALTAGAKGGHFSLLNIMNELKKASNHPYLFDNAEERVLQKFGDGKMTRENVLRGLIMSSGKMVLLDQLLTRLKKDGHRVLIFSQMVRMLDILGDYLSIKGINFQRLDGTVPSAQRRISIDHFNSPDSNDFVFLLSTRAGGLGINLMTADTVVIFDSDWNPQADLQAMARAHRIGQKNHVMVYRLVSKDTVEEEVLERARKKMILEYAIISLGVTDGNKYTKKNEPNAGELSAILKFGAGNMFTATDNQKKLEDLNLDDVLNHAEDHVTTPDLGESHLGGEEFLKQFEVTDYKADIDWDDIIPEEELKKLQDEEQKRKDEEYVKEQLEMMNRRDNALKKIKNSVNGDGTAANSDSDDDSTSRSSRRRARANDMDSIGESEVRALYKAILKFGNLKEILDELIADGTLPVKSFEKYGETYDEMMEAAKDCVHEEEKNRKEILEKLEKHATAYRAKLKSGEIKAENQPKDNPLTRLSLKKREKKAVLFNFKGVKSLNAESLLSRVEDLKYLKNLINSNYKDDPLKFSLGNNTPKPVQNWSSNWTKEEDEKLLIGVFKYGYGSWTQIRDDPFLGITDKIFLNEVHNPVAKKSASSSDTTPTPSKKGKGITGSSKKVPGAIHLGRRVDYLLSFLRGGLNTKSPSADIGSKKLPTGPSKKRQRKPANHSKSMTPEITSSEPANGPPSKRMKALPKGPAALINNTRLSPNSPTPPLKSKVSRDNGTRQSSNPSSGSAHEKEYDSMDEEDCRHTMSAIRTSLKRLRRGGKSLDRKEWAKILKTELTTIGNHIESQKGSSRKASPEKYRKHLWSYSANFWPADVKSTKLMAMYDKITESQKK
Assay: ScCHD-1 Enzyme Inhibition Assay; also: in the data most compounds retested in dose-response had high values
Format: functional
Design: scale not given: direction of the effect not stated beside the values
Settings: 30 µM
PROPERTY_NAME: Percent Effect (%)

* Cc1nc2ccnn2c(C)c1CCC(=O)N1CCC(C(N)=O)CC1 | 1.87
* COc1cc2cc(C(=O)O)n(C)c2c(OC)c1OC | -10
* O=C(Cn1cnc(NC(=O)CC2CCCC2)n1)NCc1ccccc1 | -12.2
* CCCOCCN1CCC2(CC1)CC(c1ccccc1)C(=O)N2C (stereo unspecified) | -5.61
* Cc1nc(Nc2ncccn2)cc(C2CCCN2C2CCOCC2)n1 (stereo unspecified) | -3.64
* Cc1occc1C(=O)N1CCc2ncnc(-c3cnn(C)c3)c2CC1 | -4.52
* NC(=O)C1CCCN(C(=O)c2cnc3c(cnn3C3CCCC3)c2)C1 (stereo unspecified) | -11.1
* O=C(CN1CCCCC1Cn1cncn1)NC1CCN(C2CC2)CC1 (stereo unspecified) | -11.3
* COc1ccc(CN2CCCC(Nc3cccc(F)c3)C2)cc1O (stereo unspecified) | 1.38
* Cc1nc(NC2CCCC2)cc(C2CCN2C(=O)c2cccnc2)n1 (stereo unspecified) | -16
* COC(=O)CCC(=O)N1CCc2[nH]nc(-c3ccc4c(c3)OCO4)c2C1 | -11.9

====

Biological target: Sialic acid-binding Ig-like lectin 9 (Homo sapiens)
Assay: Hs-Siglec9 ALPHAscreen SOP 20170721
Set-up: scale not given: direction of the effect not stated beside the values
Conditions: 10 µM
The molecules listed here are annotated with their Percent Effect.
PROPERTY_NAME: Percent Effect (%)

* Cc1nn(CC(=O)N2CCCCC2Cn2cccn2)c(C)c1Cl (stereo unspecified) | -1.03
* O=C(NC[C@]12COC[C@H]1CN(Cc1nccs1)C2)N1CCCC1 | 2.77
* COCCNS(=O)(=O)c1cccc2c1CN(C(=O)c1ccccc1)CC2 | 0.0622
* CCC(C)(C)NC(=O)CN(C)C(c1cccc(F)c1)c1ccccn1 (stereo unspecified) | 15.1
* Cn1cc(C(=O)NCC2CCN(C(=O)NCC(F)(F)F)CC2)cn1 | 1.59
* CCOc1ccc(N2CCCN=C2NC(=O)c2ccccc2C)cc1 | 4.38

====

Biological target: AMP-activated protein kinase, AMPK (Homo sapiens) (UniProt P54646+O43741+P54619+Q9UGJ0+Q9Y478+Q13131+Q9UGI9)
Test: AMP-dependent Kinase enzyme assay. An in vitro enzyme assay that detects ADP turnover that is directly proportional to AMPK activity. This uses naive AMPK that is activated during the assay with MK-8722
Format: functional
Design: scale not given: direction of the effect not stated beside the values
Details: 30 µM
# maps each entry to its Percent Effect
PROPERTY_NAME: Percent Effect (%)

- Cc1cc(S(=O)(=O)N2CCCc3ccc(F)cc32)sc1C(=O)O: 3.45
- CN(CCNC(=O)Nc1ccncc1)C1CCCCC1: -4.55
- O=C(NCC1CC1)C1=NOC2(CCN(Cc3ccc4c(c3)OCO4)C2)C1 (centres undefined): 8.35
- NC(=O)N1CCC2(CCN(Cc3cccc(F)c3)CC2)CC1: -0.226
- c1ccc2sc(CN3CCCC3c3noc(C4CC4)n3)nc2c1 (centres undefined): -1.08
- CC(NC(=O)NCCCn1cccn1)c1cccnc1 (centres undefined): -0.757
- COc1cccc2c1OCC(CNC(=O)CSc1nc(N)n[nH]1)C2 (centres undefined): -3.58
- Cc1[nH]ccc1C(=O)N1CCC(c2nnc(Cn3ccnc3)n2C)CC1: -2.31
- CCOCCn1c(=O)[nH]c2cc(C(=O)N(C)Cc3nc(C)cs3)ccc21: -5.57
- Cc1nc(CC(=O)N2CCCN(c3ccc(C#N)cc3)CC2)cs1: 5.74
- O=c1c2cnc(N3CCCCC3)nc2ccn1-c1ccccc1: -3.82
- Cc1nc(CN2CCCN(C(=O)C(C)OCC3CC3)CC2)cs1 (centres undefined): 0.098
- Cc1nn(C)c(N(C)C)c1CNCc1cccc(CN(C)C(C)C)c1: -10.9
- N#Cc1ccccc1N1CCCN(C(=O)CCn2cccn2)CC1: 5.53
- Cc1cc(F)ccc1CN1CCCC2(C1)OCCO2: -1.85
- CC(=O)N(Cc1ncc(C(C)C)o1)C1CCN(Cc2ncc[nH]2)C1 (centres undefined): -3.5
- CN1CCCC1CNC(=O)c1nnn(-c2ccc(F)cc2)c1C1CC1 (centres undefined): 1.3
- Cc1cnn(CC2CN(Cc3nnc(-c4occc4C)o3)CCO2)c1 (centres undefined): 142
- CN1CCN(C(CNC(=O)CCn2cccn2)c2cccs2)CC1 (centres undefined): -4.22
- Cc1ccsc1CNC(=O)NC1CCCc2c1cnn2CCO (centres undefined): 2.26
- O=C(CCCc1ccc(F)cc1)N1C[C@@H](CN2CCOCC2)[C@@H](CO)C1: -1.01
- Cc1cc(NC(=O)CCc2ccsc2)n(C)n1: -4.38
- Cc1ccc(=O)n(CC2(O)CCN(Cc3ccsc3)CC2)n1: 9.78
- CNS(=O)(=O)Cc1ccc(CNC(=O)Nc2cn[nH]c2)cc1: 6.15

====

Molecular target: Chromo domain-containing protein 1 (Saccharomyces cerevisiae (strain ATCC 204508 / S288c) (Baker's yeast))
Test: ScCHD-1 Enzyme Inhibition Assay; also: in the data most compounds retested in dose-response had high values
Format: functional
Set-up: scale not given: direction of the effect not stated beside the values
Settings: 30 µM
# note: exactly -10% is not below, so it is NO; use YES for Percent Effect strictly under it

- O=C(Cc1ccsc1)N1CCC(n2nc(-c3ccco3)ccc2=O)CC1: YES
- Cc1cc(C)n(CC(=O)N2CCC(NS(C)(=O)=O)CC2)n1: NO
- CC(NC(=O)NCc1cccc(N2CCCC2=O)c1)c1ccccc1 (stereo unspecified): YES
- CCC(C)N(C)CCNC(=O)NCc1cccc(-n2cncn2)c1 (stereo unspecified): YES
- Cc1nc(CN(C)C2CCN(Cc3nc4ccccc4s3)C2)no1 (stereo unspecified): NO
- CCO[C@@H]1CO[C@@]2(CCCN(C(=O)c3ccc(OC)c(F)c3)C2)C1: NO
- CN(CCC#N)C(=O)CCOc1cccc(F)c1: NO
- Cc1ccccc1CCNC(=O)C1CC(=O)N(CC(F)(F)F)C1 (stereo unspecified): YES
- O=C1[C@@H]2CCN(Cc3ccoc3)C[C@@H]2OCCN1Cc1cccnc1: NO
- Cc1ccc2c(ccn2CC(=O)NC[C@@H]2CCCN3CCCC[C@H]23)c1: YES
- CCCNC(=O)c1sc(Nc2ccc(Cl)cn2)nc1C: NO

====

Molecular target: Tyrosyl-tRNA synthetase, putative (Trypanosoma cruzi (strain CL Brener))
Experiment: Trypanosoma cruzi tyrosyl tRNA synthetase (TcYRS) _High Tyrosine SOP; also: in the data most compounds retested in dose-response had high values
Assay type: functional
Design: scale not given: direction of the effect not stated beside the values
Conditions: 30 µM
# Percent Effect annotations
PROPERTY_NAME: Percent Effect (%)

• Nc1nccc(N2CCCC(CO)(CCOc3ccccc3)C2)n1 (centres undefined) = 7.53
• CSc1ccccc1CN1CCn2nc(CNC(C)=O)cc2C1 = 6.45
• Cc1nc(C)n(CC2CCCN2CC(=O)NCc2ccco2)n1 (centres undefined) = 1.07
• O=C(c1ccc(=O)[nH]n1)N1CC(c2nc(Cc3ccccc3)no2)C1 = 6.45
• Cc1n[nH]c(C)c1NC(=O)CN1CCCC(CNC(=O)C(C)(C)C)C1 (centres undefined) = -1.47
• COCC1Cn2nnc(-c3cnn(C)c3)c2CN1Cc1ccc(C)s1 (centres undefined) = 6.93
• O=C(Cc1cccc(F)c1)NCCNCc1ccco1 = 3.88
• Cc1ncsc1CN1C[C@@H]2COC[C@]2(COc2ccc(C#N)cn2)C1 = 1.04
• COCc1ccccc1C(=O)NCCCN1CCCC1C(=O)N(C)C (centres undefined) = 3.23
• Cc1nn(C)cc1CN1CCC(C2Nc3ccccc3S(=O)(=O)N2)CC1 (centres undefined) = 6.45
• CCc1c(C(=O)N2CCN(CC(N)=O)CC2)cnn1C(C)(C)C = 4.43
• Cc1nc(N2CCN(C(=O)c3ccc(O)cc3)CC2)c2cnn(C)c2n1 = -2.46
• CCN(CC1CCOC1)C(=O)c1ccccc1N1CCOCC1 (centres undefined) = 5.42
• CNC(=O)c1cc2c(nc1NCC(C)C)CCN(S(=O)(=O)C1CC1)CC2 = 2.15
• Cc1ccc(=O)n(CC2(O)CCN(Cc3ccsc3)CC2)n1 = 7.53
• Cc1nccn1CCC1CCCCN1Cc1ccncc1 (centres undefined) = 2.73
• Fc1ccc(-c2nnc(CN3CCOC(Cn4cncn4)C3)o2)cc1 (centres undefined) = 0.971
• Cc1c(C)n(-c2ccccn2)c2nc3c(c(N)c12)CCCC3 = 1.06
• CCc1cc(NCCc2ccc(O)cc2)n2nccc2n1 = 3.23
• O=C(Cc1c[nH]c2ccccc12)N1CCN(C(=O)c2ccoc2)CC1 = 7.45
• O=C(NCCCn1nc2ccccn2c1=O)NC1CCC(O)CC1 (centres undefined) = 0
• Cc1[nH]c(=O)[nH]c(=O)c1CN1CCCC(CCc2c(F)cccc2F)C1 (centres undefined) = 3.7
• O=C(Cc1ccc(F)cc1)NCCNCC1CNc2ccnn2C1 (centres undefined) = 8.99
• O=C(Cn1cnc(-c2ccccc2)cc1=O)Nc1ccncc1 = 6.35
